Origin of measurements: paper PMC3445775

Entries with reported IC50 on human FATP2 (Homo sapiens, UniProt O14975)
One number for each entry, in µM.

Solved cases (3 shown):
>>> test_value("Oc1c(C2=NCCNC(C(F)(F)F)=C2)ccc2ccccc12 [CB-6, reference compound]")
12
>>> test_value("O=c1cc(-c2ccc([N+](=O)[O-])cc2)nc2c(-c3ccc(Cl)cc3)c(Cc3ccccc3)[nH]n12 [CB-5, reference compound]")
18
>>> test_value("COc1cc(/C=C2/SC(=S)N(c3cccc(Cl)c3)C2=O)cc(Br)c1O [CB-2, reference compound]")
8

Continue with the next compound.
Ask: Report measured IC50; entry is C[C@H](CCC(=O)O)[C@H]1CC[C@H]2[C@@H]3CC[C@@H]4C[C@H](O)CC[C@]4(C)[C@H]3C[C@H](O)[C@]12C [DCA, deoxycholic acid]
Result: 5

====

Biological target: human FATP2 (Homo sapiens)
Type: cell-based
Conditions: result in words
measurement.name: inhibition of FATP2-mediated LCFA uptake

>>> test_value("CC(CCC[C@@H](C)[C@H]1CC[C@H]2[C@@H]3[C@H](O)C[C@@H]4C[C@H](O)CC[C@]4(C)[C@H]3C[C@H](O)[C@]12C)C(=O)O (stereo partly shown) [THCA]")
"no inhibition"
>>> test_value("C[C@H](CCC(=O)O)[C@H]1CC[C@H]2[C@@H]3CC[C@@H]4C[C@H](O)CC[C@]4(C)[C@H]3CC[C@]12C [LCA, lithocholic acid]")
"no inhibition"

====

Recorded IC50 values (human FATP5 (Homo sapiens, UniProt Q9Y2P5)) are given below.
One number for each entry, in µM.

Examples with their reported IC50 follow.
>>> test_value("C[C@H](CCC(=O)O)[C@H]1CC[C@H]2[C@@H]3CC[C@@H]4C[C@H](O)CC[C@]4(C)[C@H]3C[C@H](O)[C@]12C [DCA, deoxycholic acid]")
0.19
>>> test_value("Oc1c(C2=NCCNC(C(F)(F)F)=C2)ccc2ccccc12 [CB-6, reference compound]")
38
>>> test_value("C[C@H](CCC(=O)O)[C@H]1CC[C@H]2[C@@H]3[C@H](O)C[C@@H]4C[C@H](O)CC[C@]4(C)[C@H]3C[C@H](O)[C@]12C [CA, cholic acid]")
31
>>> test_value("C[C@H](CCC(=O)O)[C@H]1CC[C@H]2[C@@H]3[C@@H](O)C[C@@H]4C[C@H](O)CC[C@]4(C)[C@H]3CC[C@]12C [UDCA, ursodeoxycholic acid, reference compound]")
5
>>> test_value("C[C@H](CCC(=O)O)[C@H]1CC[C@H]2[C@@H]3[C@H](O)C[C@@H]4C[C@H](O)CC[C@]4(C)[C@H]3CC[C@]12C [CDCA, chenodeoxycholic acid]")
10

Ask: Give the reported IC50 for this compound. O=c1cc(-c2ccc([N+](=O)[O-])cc2)nc2c(-c3ccc(Cl)cc3)c(Cc3ccccc3)[nH]n12 [CB-5, reference compound]
Result: 7
